This listing pairs binders with measured Emax.
- target: T1, human DLL3 on cells (human, UniProt Q9NYJ7 27-618)
- T1 construct: Endogenous on H1184 and SHP77; Cell line is named under assay; also called H1184; DLL3/H82
- T1 sequence: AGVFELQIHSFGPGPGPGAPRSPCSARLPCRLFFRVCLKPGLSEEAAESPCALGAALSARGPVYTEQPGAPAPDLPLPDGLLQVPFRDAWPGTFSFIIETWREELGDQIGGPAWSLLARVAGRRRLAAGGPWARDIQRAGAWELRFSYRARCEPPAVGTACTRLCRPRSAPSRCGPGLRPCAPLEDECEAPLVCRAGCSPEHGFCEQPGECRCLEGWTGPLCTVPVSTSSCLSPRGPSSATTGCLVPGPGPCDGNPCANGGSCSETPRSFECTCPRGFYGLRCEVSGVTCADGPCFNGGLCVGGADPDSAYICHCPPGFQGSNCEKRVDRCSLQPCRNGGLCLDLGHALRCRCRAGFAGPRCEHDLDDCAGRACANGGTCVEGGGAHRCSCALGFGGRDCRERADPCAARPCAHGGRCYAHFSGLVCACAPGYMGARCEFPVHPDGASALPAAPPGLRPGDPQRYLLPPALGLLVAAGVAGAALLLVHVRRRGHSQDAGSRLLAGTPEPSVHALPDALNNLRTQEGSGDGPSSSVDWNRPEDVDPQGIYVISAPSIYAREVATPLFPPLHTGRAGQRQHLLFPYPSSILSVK
- assay.text: flow cytometry, H1184 cells
Reply with the value as a number alone.

binder="hu6L2H11 (antibody, human IgG1, kappa, V domains shown) VH: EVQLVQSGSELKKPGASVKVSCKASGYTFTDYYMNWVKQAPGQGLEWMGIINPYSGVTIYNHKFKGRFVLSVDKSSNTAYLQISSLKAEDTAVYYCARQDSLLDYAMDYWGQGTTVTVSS VL: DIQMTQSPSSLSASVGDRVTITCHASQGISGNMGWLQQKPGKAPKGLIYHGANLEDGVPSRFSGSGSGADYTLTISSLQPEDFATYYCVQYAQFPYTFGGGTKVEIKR" numeric_result=1960

**Q:** Consider the binder hu98L3H2 (antibody, human IgG1, kappa, V domains shown) VH: EVQLVESGGGLVQPGGSLRLSCAASGFTFSDYGIHWVRQAPGKGLEWVAYISSGGYTIYYADTVKGRFTISRDNAKNSLYLQMNSLRAEDTAVYYCARGDYEDIFYTMDYWGQGTTVTVSS VL: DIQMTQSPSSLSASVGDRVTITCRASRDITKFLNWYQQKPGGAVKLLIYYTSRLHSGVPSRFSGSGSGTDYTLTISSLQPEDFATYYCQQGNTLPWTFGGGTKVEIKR and give its measured Emax.
**A:** 2350

**Q:** Consider the binder hu6L4H12 (antibody, human IgG1, kappa, V domains shown) VH: EVQLVQSGSELKKPGASVKVSCKASGYTFTDYYMNWVRQAPGQGLEWMGIINPYSGVTIYNHKFKGRFALSVDKSSNTAYLQISSLKAEDTAVYYCARQDSLLDYAMDYWGQGTTVTVSS VL: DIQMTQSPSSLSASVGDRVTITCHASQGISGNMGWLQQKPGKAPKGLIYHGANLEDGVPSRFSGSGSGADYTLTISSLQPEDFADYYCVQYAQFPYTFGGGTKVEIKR and give its measured Emax.
**A:** 2130

**Q:** Consider the binder hu98L3H4 (antibody, human IgG1, kappa, V domains shown) VH: EVQLVESGGGLVQPGGSLRLSCAASGFTFSDYGIHWVRQAPGKGLEWVAYISSGGYTSYYADTVKGRFTISRDNAKNSLYLQMNSLRAEDTAVYYCARGDYEDIFYTMDYWGQGTTVTVSS VL: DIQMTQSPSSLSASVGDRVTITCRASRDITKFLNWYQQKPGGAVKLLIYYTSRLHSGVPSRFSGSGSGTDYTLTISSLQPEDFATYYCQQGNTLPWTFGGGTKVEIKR and give its measured Emax.
**A:** 1600

**Q:** Consider the binder hu6L2H6 (antibody, human IgG1, kappa, V domains shown) VH: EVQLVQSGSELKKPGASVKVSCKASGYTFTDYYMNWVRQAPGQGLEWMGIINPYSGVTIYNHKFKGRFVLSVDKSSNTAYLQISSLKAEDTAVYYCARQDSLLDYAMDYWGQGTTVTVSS VL: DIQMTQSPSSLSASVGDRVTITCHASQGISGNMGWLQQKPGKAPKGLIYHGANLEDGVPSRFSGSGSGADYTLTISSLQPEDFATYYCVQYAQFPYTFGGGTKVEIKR and give its measured Emax.
**A:** 2420

**Q:** Consider the binder hu98L2H2 (antibody, human IgG1, kappa, V domains shown) VH: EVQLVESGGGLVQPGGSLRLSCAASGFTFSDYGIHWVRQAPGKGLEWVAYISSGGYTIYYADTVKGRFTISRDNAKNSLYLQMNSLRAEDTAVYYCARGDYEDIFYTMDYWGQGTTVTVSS VL: DIQMTQSPSSLSASVGDRVTITCRASRDITKFLNWYQQKPGKAVKLLIYYTSRLHSGVPSRFSGSGSGTDYTLTISSLQPEDFATYYCQQGNTLPWTFGGGTKVEIKR and give its measured Emax.
**A:** 2310

Value source: patent US20250376519A1
